target: HLA-A24 type molecule (product of the HLA-A*2402 gene) (human)
Collected -log Kd values appear next to each entry.
readout.label: -log Kd

binder | recorded.measurement
LLSTTEWQI (modifications not checked) [SEQ ID NO 42] | 8.34 -log Kd (M)
WHYPCTVNF (modifications not checked) [SEQ ID NO 8] | 6.39 -log Kd (M)
AQPGYPWPL (modifications not checked) [SEQ ID NO 12] | 5.36 -log Kd (M)
SYTWTGALI (modifications not checked) [SEQ ID NO 14] | 7.13 -log Kd (M)
ILPCSFTTL (modifications not checked) [SEQ ID NO 1] | 7.66 -log Kd (M)
ILMTHFFSI (modifications not checked) [SEQ ID NO 13] | 7.9 -log Kd (M)
NFSRCWVAL (modifications not checked) [SEQ ID NO 37] | 6.28 -log Kd (M)
ILLGPADSF (modifications not checked) [SEQ ID NO 27] | 5.5 -log Kd (M)
ITYSTYCKF (modifications not checked) [SEQ ID NO 40] | 6.98 -log Kd (M)
LMTHFFSIL (modifications not checked) [SEQ ID NO 18] | 5.92 -log Kd (M)
LLKRLHQWI (modifications not checked) [SEQ ID NO 19] | 6.86 -log Kd (M)
VILDSFDPI (modifications not checked) [SEQ ID NO 2] | 5.32 -log Kd (M)
AYYSMVGNW (modifications not checked) [SEQ ID NO 22] | 6.47 -log Kd (M)
